Collected literature values of log10 of Ki measured for D(3) dopamine receptor (Rattus norvegicus, UniProt P19020).
ASSAY METRIC: log10 of Ki (log10 of the value in nM)

{"MOLECULE": "COc1c(C(=O)NC2CCN(C3CCCC3)CC2)cc(Br)c2ccccc12", "log10 of Ki": 2.95}
{"MOLECULE": "CCCN(CCN1CCN(c2ccccc2)CC1)[C@H]1CCc2c(cccc2OS(=O)(=O)c2ccc(C)cc2)C1", "log10 of Ki": 1.51}
{"MOLECULE": "CCCN(CCN1CCN(C(=O)c2c[nH]c3ccc(O)cc23)CC1)C1CCc2nc(N)sc2C1 (centres undefined)", "log10 of Ki": 1.23}
{"MOLECULE": "CCCN(CCN1CCN(c2ccc(-c3cccc(O)c3)cc2)CC1)C1CCc2nc(N)sc2C1 (racemic)", "log10 of Ki": 0.08}
{"MOLECULE": "CCCN(CCN1CCN(c2ccccc2)CC1)C1CCc2ccc(NS(=O)(=O)c3ccc(Cl)cc3)cc2C1 (centres undefined)", "log10 of Ki": 0.62}
{"MOLECULE": "CCCN(CC[C@H]1CC[C@H](NS(=O)(=O)c2ccccc2)CC1)[C@H]1CCc2nc(N)sc2C1", "log10 of Ki": -0.10}
{"MOLECULE": "CCCN(CCN1CCN(c2ccccc2)CC1)[C@@H]1CCc2ccc(OS(=O)(=O)c3ccc(OC)cc3)cc2C1", "log10 of Ki": 1.43}
{"MOLECULE": "O=C(NCCCN1CCN2c3ccccc3CCC2C1)c1ccc2ccccc2c1 (centres undefined)", "log10 of Ki": 3.19}
{"MOLECULE": "Cn1cncc1-c1nnc(SCCCN2CCOC(c3ccc(C(F)(F)F)cc3)C2)n1C (racemic)", "log10 of Ki": 2.80}

----------
Collected literature values of pKi measured for D(3) dopamine receptor (Rattus norvegicus, UniProt P19020).
pKi: −log10 of the molar value.
ASSAY METRIC: pKi

{"COMPOUND": "O=C(NCCN1CCN2c3ccccc3CCC2C1)c1ccc2ccccc2c1 (centres undefined)", "NUMERIC RESULT": 5.78}
{"COMPOUND": "CCCN(CCN1CCN(Cc2c[nH]c3ccc(OC)cc23)CC1)C1CCc2nc(N)sc2C1 (racemic)", "NUMERIC RESULT": 7.80}
{"COMPOUND": "COc1ccc2c(c1)CCC1CN(CC[C@H]3CC[C@H](NC(=O)c4cc5ccccc5cn4)CC3)CCN21 (some centres undefined)", "NUMERIC RESULT": 7.32}
{"COMPOUND": "CCCN(CC[C@H]1CC[C@H](NC(=O)c2ccc3ccccc3n2)CC1)[C@H]1CCc2nc(N)sc2C1", "NUMERIC RESULT": 8.80}
{"COMPOUND": "CCCN(CC[C@H]1CC[C@H](NC(=O)c2cccc(-c3noc(C)n3)c2)CC1)[C@H]1CCc2nc(N)sc2C1", "NUMERIC RESULT": 9.14}
{"COMPOUND": "COc1c(C(=O)N[C@H]2CCN(C3CCCC3)C2)cc(Br)c2ccccc12", "NUMERIC RESULT": 8.60}
{"COMPOUND": "COc1c(C(=O)N[C@@H]2CCN(C3CCCCC3)C2)cc(Br)c2ccccc12", "NUMERIC RESULT": 8.24}
{"COMPOUND": "CCCN(CCN1CCN(c2ccc(-c3cccc(O)c3)cc2)CC1)[C@@H]1CCc2nc(N)sc2C1", "NUMERIC RESULT": 7.71}
{"COMPOUND": "COc1ccccc1N1CCN(CCNS(=O)(=O)c2ccc3ccccc3c2)CC1", "NUMERIC RESULT": 7.25}
{"COMPOUND": "CCCN(CC[C@H]1CC[C@H](NS(=O)(=O)c2cnccc2Cl)CC1)[C@H]1CCc2nc(N)sc2C1", "NUMERIC RESULT": 9.03}
{"COMPOUND": "CCCN(CCN1CCN(C(=O)c2cc3ccccc3[nH]2)CC1)[C@H]1CCc2nc(N)sc2C1", "NUMERIC RESULT": 8.74}
{"COMPOUND": "CCCN(CCN1CCN(Cc2ccc3[nH]ccc3c2)CC1)C1CCc2c(O)cccc2C1 (centres undefined)", "NUMERIC RESULT": 8.38}
{"COMPOUND": "CCCN(CCN1CCN(c2ccccc2)CC1)C1CCc2cc3[nH]cnc3cc2C1 (centres undefined)", "NUMERIC RESULT": 7.22}
{"COMPOUND": "COc1cc(NC(=O)C2CC2)c(Cl)cc1C(=O)N[C@H]1CCN(Cc2ccccc2)C1", "NUMERIC RESULT": 7.68}
{"COMPOUND": "CCCN(CCN1CCN(c2ccc(-c3ccccc3)cc2O)CC1)C1CCc2nc(N)sc2C1 (racemic)", "NUMERIC RESULT": 8.63}
{"COMPOUND": "COc1c(C(=O)NC2CCN(C3C4CCCC3CCC4)CC2)cc(Br)c2ccccc12 (centres undefined)", "NUMERIC RESULT": 5.84}
{"COMPOUND": "O=C(CCCCN1CCN2c3ccccc3CCC2C1)c1ccc(F)cc1 (centres undefined)", "NUMERIC RESULT": 6.42}
{"COMPOUND": "CCCN(CCN1CCN(c2ccccc2)CC1)C1CCc2nc(N)sc2C1 (single isomer, unassigned; (+))", "NUMERIC RESULT": 7.36}
{"COMPOUND": "O=C(NCCCCN1CCN(c2ccc(Cl)cc2Cl)CC1)c1cc2ccccc2o1", "NUMERIC RESULT": 9.39}

----------
pKi: −log10 of the molar value.
Collected literature values of pKi measured for D(3) dopamine receptor (Rattus norvegicus, UniProt P19020).
ASSAY METRIC: pKi

{"COMPOUND": "CCCN(CCc1ccc(OC)c(OC)c1)C1Cc2cc(OC)c(OC)cc2C1", "COMPARISON SIGN": "=", "NUMERIC RESULT": 7.54}
{"COMPOUND": "Cn1c(SCCCN2CCOC(c3ccc(C(F)(F)F)cc3)C2)nnc1-c1ccc(-c2nnco2)cc1 (racemic)", "COMPARISON SIGN": "=", "NUMERIC RESULT": 7.80}
{"COMPOUND": "COc1ccc2c(c1)CCC1CN(CC[C@H]3CC[C@H](NC(=O)c4ccc5ccccc5n4)CC3)CCN21 (stereo partly specified)", "COMPARISON SIGN": "=", "NUMERIC RESULT": 6.74}
{"COMPOUND": "COc1cc(NC(=O)C2CCCCC2)c(Cl)cc1C(=O)N[C@H]1CCN(Cc2ccccc2)C1", "COMPARISON SIGN": "=", "NUMERIC RESULT": 6.70}
{"COMPOUND": "O=C1CC2(CCCC2)CC(=O)N1CCN1CCN(c2cc(F)ccc2F)CC1", "COMPARISON SIGN": "=", "NUMERIC RESULT": 8.09}
{"COMPOUND": "Oc1cccc2c1C[C@@H]1CCCN(CCN3CCN(c4ccccc4)CC3)[C@H]1C2 (racemic)", "COMPARISON SIGN": "=", "NUMERIC RESULT": 6.13}
{"COMPOUND": "COc1cc(NC(=O)c2ccccc2)c(Cl)cc1C(=O)N[C@H]1CCN(Cc2ccccc2)C1", "COMPARISON SIGN": "=", "NUMERIC RESULT": 6.70}
{"COMPOUND": "CCCN(CC[C@H]1CC[C@H](NC(=O)c2ccccc2-n2cccn2)CC1)[C@H]1CCc2nc(N)sc2C1", "COMPARISON SIGN": "=", "NUMERIC RESULT": 8.70}
{"COMPOUND": "CCCN(CCCCN(CCC)[C@H]1CCc2c(O)cccc2C1)[C@H]1CCc2c(O)cccc2C1", "COMPARISON SIGN": "=", "NUMERIC RESULT": 8.40}
{"COMPOUND": "COc1cc2c(cc1OC)CN(Cc1ccc(-c3cc(Br)cc(OC)c3OC)[nH]1)CC2", "COMPARISON SIGN": "=", "NUMERIC RESULT": 8.41}
{"COMPOUND": "NC(=O)c1cccc(N2CCN(CCCCNC(=O)c3ccc(Br)cc3)CC2)c1", "COMPARISON SIGN": "=", "NUMERIC RESULT": 8.80}
{"COMPOUND": "COc1cc2c(cc1O)[C@@H]1Cc3ccc(O)c(OC)c3CN1CC2", "COMPARISON SIGN": "=", "NUMERIC RESULT": 7.52}
{"COMPOUND": "O=C(NCCCCN1CCN2c3ccccc3CC[C@H]2C1)c1ccc2ccccc2c1", "COMPARISON SIGN": "=", "NUMERIC RESULT": 7.80}
{"COMPOUND": "O=C1CCc2cc(C(O)CCCN3CCC(c4noc5cc(F)ccc45)CC3)cc3c2N1CC3 (stereo unspecified)", "COMPARISON SIGN": "=", "NUMERIC RESULT": 7.34}
{"COMPOUND": "CCCN(CCN1CCN(C(=O)c2cc3ccccc3[nH]2)CC1)[C@@H]1CCc2nc(N)sc2C1", "COMPARISON SIGN": "=", "NUMERIC RESULT": 7.27}
{"COMPOUND": "CCCN(CCN1CCN(c2ccccc2)CC1)C1CCc2c[nH]nc2C1 (stereo unspecified)", "COMPARISON SIGN": "=", "NUMERIC RESULT": 6.73}
{"COMPOUND": "COc1ccccc1N1CCN(CCCCOc2ccc3c4c(c(=O)oc3c2)CCC4)CC1", "COMPARISON SIGN": "=", "NUMERIC RESULT": 6.75}
{"COMPOUND": "CCCN(CC[C@H]1CC[C@H](NS(=O)(=O)c2ccc(C(C)C)cc2)CC1)[C@H]1CCc2nc(N)sc2C1", "COMPARISON SIGN": "=", "NUMERIC RESULT": 8.35}
{"COMPOUND": "COc1ccccc1N1CCN(CCCCNC(=O)[C@@H]2Cc3ccccc3CN2)CC1", "COMPARISON SIGN": "=", "NUMERIC RESULT": 8.04}
{"COMPOUND": "COc1c(C(=O)NC2CC3CCCC(C2)N3C2CCCCC2)cc(Br)c2ccccc12 (stereo unspecified)", "COMPARISON SIGN": "=", "NUMERIC RESULT": 7.32}
{"COMPOUND": "CCCN(CCCCN1CCN(C(=O)c2cc3ccccc3[nH]2)CC1)C1CCc2nc(N)sc2C1 (racemic)", "COMPARISON SIGN": "=", "NUMERIC RESULT": 8.76}
{"COMPOUND": "COc1ccccc1N1CCN(CCCCOc2ccc3c(C)cc(=O)oc3c2)CC1", "COMPARISON SIGN": "=", "NUMERIC RESULT": 8.32}
{"COMPOUND": "Cc1nccn1CC1CCc2c(c3ccccc3n2C)C1=O (stereo unspecified)", "COMPARISON SIGN": "<", "NUMERIC RESULT": 5.00}
{"COMPOUND": "COc1ccccc1N1CCN(CCCCCCNS(=O)(=O)c2ccc3ccccc3c2)CC1", "COMPARISON SIGN": "=", "NUMERIC RESULT": 8.71}
{"COMPOUND": "Cn1cccc1-c1nnc(SCCCN2CCOC(c3ccc(C(F)(F)F)cc3)C2)n1C (racemic)", "COMPARISON SIGN": "=", "NUMERIC RESULT": 6.90}
{"COMPOUND": "CCCN(CC[C@H]1CC[C@H](NS(=O)(=O)c2cccnc2Cl)CC1)[C@H]1CCc2nc(N)sc2C1", "COMPARISON SIGN": "=", "NUMERIC RESULT": 9.42}
{"COMPOUND": "Oc1ccc2c(c1)[C@@H]1CCCN(CCN3CCN(c4ccccc4)CC3)[C@H]1CC2", "COMPARISON SIGN": "=", "NUMERIC RESULT": 7.14}
{"COMPOUND": "CCCN(CCN1CCN(c2ccccc2)CC1)[C@H]1CCc2c(cccc2OS(=O)(=O)c2ccc(OC)cc2)C1", "COMPARISON SIGN": "=", "NUMERIC RESULT": 7.75}
{"COMPOUND": "CCCN(CC[C@H]1CC[C@H](NC(=O)/C=C/c2ccccc2Cl)CC1)[C@H]1CCc2nc(N)sc2C1", "COMPARISON SIGN": "=", "NUMERIC RESULT": 8.92}
{"COMPOUND": "CCCN(CC[C@H]1CC[C@H](NC(=O)/C=C/c2ccccc2F)CC1)[C@H]1CCc2nc(N)sc2C1", "COMPARISON SIGN": "=", "NUMERIC RESULT": 8.54}
{"COMPOUND": "CCCN(CCN1CCN(c2ccc(-c3cccnc3)cc2)CC1)C1CCc2ccc(O)cc2C1 (racemic)", "COMPARISON SIGN": "=", "NUMERIC RESULT": 8.52}
{"COMPOUND": "CCCN(CCN1CCN(Cc2c[nH]c3ccc(Br)cc23)CC1)C1CCc2nc(N)sc2C1 (racemic)", "COMPARISON SIGN": "=", "NUMERIC RESULT": 7.89}
{"COMPOUND": "COc1ccc2c(c1)N1CCN(CCCCNC(=O)c3ccc4ccccc4c3)C[C@H]1CC2", "COMPARISON SIGN": "=", "NUMERIC RESULT": 7.36}
{"COMPOUND": "Oc1ccc2c(c1)C[C@@H]1[C@@H](CCCN1CCN1CCN(c3cccc(Cl)c3Cl)CC1)C2 (racemic)", "COMPARISON SIGN": "=", "NUMERIC RESULT": 6.73}
{"COMPOUND": "O=C(CCCc1ccccc1)O[C@H](CCCN1CCC(O)(c2ccc(Cl)cc2)CC1)c1ccc(F)cc1", "COMPARISON SIGN": "<", "NUMERIC RESULT": 5.30}
{"COMPOUND": "Cc1ccc(C2CN(CCCSc3nnc(-c4ccc(-c5noc(C)n5)cc4)n3C)CCO2)cc1 (racemic)", "COMPARISON SIGN": "=", "NUMERIC RESULT": 7.10}
